Each entry below carries its reported thermal melting temperature.
# Experimental system: HLA-C*04:01
# Procedure summary: thermal melting temperature (Tm) of peptide-HLA complex; higher = more thermostable pHLA complex
# Conditions: C1R-A*02:01
Show the value, then the unit it is measured in.

Would you please look over these solved cases?
Seq string	thermal melting temperature
RFEDSPSYV	54.4 °C
YFDDLKGEM	57.9 °C
VWDVIGRSL	53.5 °C

Now take the following sequence into account.
Incoming: Bench note: what thermal melting temperature did SYMEVPTYL show?
Outgoing: 54.8 °C
